Molecular target: human TRPC6 (Homo sapiens, UniProt Q9Y210)
Assay: TRPC6 calcium flux assay (FLIPR, OAG-stimulated calcium influx)
Details: HEK293 cells stably transfected with human TRPC6, read-out: hTRPC6 Potency
Procedure: Biological Example 1 TRPC6 Calcium Flux Assay Potency of TRPC6 (Transient receptor potential channel family C6) inhibitors were measured by their inhibition of Calcium influx trigged by […] (1-Oleoyl-2-acetyl-sn-glycerol, Millipore Sigma, O6754) stimulation on HEK293 cells stablely transfected with human TRPC6 using a FLIPR tetra system. […]
Overview of recorded IC50 for various molecules
Endpoint name: IC50

CCN(CC1CCN(C(C)=O)C1)C(=O)Cn1c(N2CC[C@@H](F)[C@H](N)C2)nc2cc(F)c(F)cc21 (mixture of isomers): > 1.75 µM
C[C@@H](c1ccc(Cl)cc1Cl)n1c(N2CC[C@@H](F)[C@H](N)C2)nc2cc(F)c(F)cc21: > 3.75 µM
C[C@@H](c1cc(F)ccc1F)n1c(N2CC[C@@H](F)[C@H](N)C2)nc2cc(F)c(F)cc21: > 3.75 µM
N[C@@H]1CN(c2nc3cc(F)c(F)cc3n2CC(=O)N2CCC(C(=O)N3CCCC3)CC2)CC[C@H]1F: > 1.75 µM

---

target: human TRPC6 (Homo sapiens); assay: TRPC6 calcium flux assay (FLIPR, OAG-stimulated calcium influx); details: HEK293 cells stably transfected with human TRPC6, read-out: hTRPC6 Potency
pIC50: −log10 of the molar value. Counter-ions that a name gives are not always drawn.
Label scheme for pIC50: lower bin = under 7, middle bin = from 7 up to 8, upper bin = 8 and over

N[C@@H]1CN(c2nc3cc(F)ccc3n2Cc2ncc(Cl)cn2)CC[C@@H]1F: upper bin
N#Cc1ccc(Cn2c(N3CC[C@@H](F)[C@H](N)C3)nc3c(C#N)cccc32)nc1: upper bin
N[C@@H]1CCCN(c2nc3ccccc3n2Cc2ccc(OC(F)(F)F)cc2)C1: lower bin
N[C@@H]1CN(c2nc3cc(F)ccc3n2Cc2nnc(C(F)F)s2)CC[C@H]1F: lower bin
N#Cc1ccc(Cn2c(N3CCC[C@H](N)C3)nc3cc(C#N)ccc32)nc1: middle bin
CC(N(C)C(=O)Cn1c(N2CC[C@@H](F)[C@H](N)C2)nc2cc(F)c(F)cc21)C(F)(F)F (mixture of isomers): middle bin
N[C@@H]1CN(c2nc3ccc(F)cc3n2CC(=O)NCC(F)(F)F)CC[C@H]1F: lower bin
N#Cc1ccc(Cn2c(N3CC[C@H](O)[C@H](N)C3)nc3ccc(F)cc32)nc1: lower bin
N#Cc1ccc(Cn2c(N3CC[C@@H](F)[C@H](N)C3)nc3cc(F)ccc32)nc1 [Example 49, hydrochloride]: upper bin
N#Cc1cc(F)cc2c1nc(N1CC[C@H](F)[C@H](N)C1)n2Cc1ncc(Cl)cn1: upper bin
N#Cc1ccc2c(c1)nc(N1CC[C@@H](F)[C@H](N)C1)n2Cc1ncc(Br)cn1: middle bin
N#Cc1ccc(Cn2c(N3CC[C@H](F)[C@H](N)C3)nc3ccc(F)cc32)nc1 [Example 47, hydrochloride]: upper bin

---

Molecular target: human TRPC6 (Homo sapiens, UniProt Q9Y210)
Sequence (Q9Y210 1-931): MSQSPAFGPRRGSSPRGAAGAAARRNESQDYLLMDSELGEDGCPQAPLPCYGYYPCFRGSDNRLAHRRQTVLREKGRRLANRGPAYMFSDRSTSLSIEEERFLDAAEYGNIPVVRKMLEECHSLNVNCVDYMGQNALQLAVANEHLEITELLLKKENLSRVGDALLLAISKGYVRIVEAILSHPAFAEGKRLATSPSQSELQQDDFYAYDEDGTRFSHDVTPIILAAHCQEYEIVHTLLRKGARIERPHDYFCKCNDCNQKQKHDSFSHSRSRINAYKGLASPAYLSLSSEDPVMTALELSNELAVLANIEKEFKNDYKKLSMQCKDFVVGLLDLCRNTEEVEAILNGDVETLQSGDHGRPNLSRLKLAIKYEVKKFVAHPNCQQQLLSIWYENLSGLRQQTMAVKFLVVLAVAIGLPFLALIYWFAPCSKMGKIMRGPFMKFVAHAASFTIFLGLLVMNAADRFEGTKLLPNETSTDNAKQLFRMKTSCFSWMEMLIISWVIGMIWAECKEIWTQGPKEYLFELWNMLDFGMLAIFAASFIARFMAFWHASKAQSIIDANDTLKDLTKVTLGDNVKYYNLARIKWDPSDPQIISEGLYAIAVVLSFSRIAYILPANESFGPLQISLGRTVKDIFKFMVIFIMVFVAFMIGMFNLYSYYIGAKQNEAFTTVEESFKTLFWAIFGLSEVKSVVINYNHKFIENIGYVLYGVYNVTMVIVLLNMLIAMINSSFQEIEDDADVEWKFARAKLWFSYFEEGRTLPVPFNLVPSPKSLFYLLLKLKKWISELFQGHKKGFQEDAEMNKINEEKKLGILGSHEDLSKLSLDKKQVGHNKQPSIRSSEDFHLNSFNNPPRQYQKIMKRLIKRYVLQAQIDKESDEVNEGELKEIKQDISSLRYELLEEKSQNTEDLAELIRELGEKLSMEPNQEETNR
Experiment: TRPC6 calcium flux assay (FLIPR, OAG-stimulated calcium influx)
Conditions: HEK293 cells stably transfected with human TRPC6, read-out: hTRPC6 Potency
pIC50: −log10 of the molar value.
Response key: YES means pIC50 >= 7; NO means pIC50 < 7.

CC(C)N(C)C(=O)C1CCN(C(=O)Cn2c(N3CC[C@@H](F)[C@H](N)C3)nc3cc(F)c(F)cc32)CC1 [Example 542]: NO
N[C@@H]1CN(c2nc3cc(F)c(F)cc3n2CC(=O)N(CCO)Cc2cccnc2)CC[C@H]1F [Example 655]: NO
C[C@@H](NC(=O)Cn1c(N2CC[C@@H](F)[C@H](N)C2)nc2ccc(F)cc21)c1ccccn1 [Example 674]: NO
CC(C)(C#N)c1ccc(Cn2c(N3CCC[C@@H](N)C3)nc3ccccc32)cc1 [Example 380]: NO
N[C@@H]1CN(c2nc3cc(F)cc(F)c3n2Cc2ccc(F)cn2)CC[C@H]1F [Example 32]: YES
N[C@@H]1CN(c2nc3cc(F)c(F)cc3n2[C@@H]2CCN(C3CC3)C2=O)CC[C@H]1F [Example 547]: YES
N[C@@H]1CN(c2nc3cc(F)c(F)cc3n2Cc2ccc(F)cc2F)CC[C@H]1F [Example 351]: YES
N#Cc1ccc2nc(N3CC[C@@H](F)[C@H](N)C3)n(Cc3ncc(Cl)cn3)c2c1 [Example 187]: YES

---

biological target: human TRPC6 (Homo sapiens, UniProt Q9Y210); test: TRPC6 calcium flux assay (FLIPR, OAG-stimulated calcium influx); conditions: HEK293 cells stably transfected with human TRPC6, read-out: hTRPC6 Potency
pIC50: −log10 of the molar value. Counter-ions that a name gives are not always drawn.
Category scheme (pIC50): range 1 (below 7), range 2 (7 to below 9), range 3 (9 or more)

N[C@@H]1CN(c2nc3cc(F)c(F)cc3n2Cc2nnc(C(F)F)s2)CC[C@H]1F [Example 560]: range 2
N#Cc1ccc(Cn2c(N3CC[C@@H](O)[C@H](N)C3)nc3ccc(F)cc32)nc1 [Example 207]: range 2
N#Cc1ccc(Cn2c(N3CCC[C@]4(CCCCN4)C3)nc3ccccc32)nc1 [Example 129]: range 1
N[C@@H]1CN(c2nc3ccccc3n2Cc2ccc(Cl)cn2)CCC1(F)F [Example 85, hydrochloride]: range 2
N#Cc1ccc(Cn2c(N3CC[C@@H](F)[C@H](N)C3)nc3cnccc32)cc1 [Example 412]: range 1
N[C@@H]1CN(c2nc3cc(F)c(F)cc3n2Cc2cc(Cl)ccc2OC(F)(F)F)CC[C@H]1F [Example 338]: range 1
CC(=O)NC1CCCN(C(=O)Cn2c(N3CC[C@@H](F)[C@H](N)C3)nc3cc(F)c(F)cc32)C1 (stereo partly drawn) [Example 535]: range 1
COc1cccc2c1nc(N1CC[C@@H](F)[C@H](N)C1)n2Cc1ccc(C#N)cc1 [Example 411]: range 2
N#Cc1ccc(Cn2c(N3CC[C@H](F)[C@H](N)C3)nc3ccc(Cl)cc32)cc1 [Example 401, hydrochloride]: range 3
N#Cc1ccc(Cn2c(N3CC[C@H](F)[C@H](N)C3)nc3c(Cl)cc(Cl)cc32)nc1 [Example 59]: range 3
N#Cc1ccc(Cn2c(N3CC[C@@H](F)[C@H](N)C3)nc3c(Cl)cc(F)cc32)nc1 [Example 144, 2,2,2-trifluoroacetate]: range 3
N[C@@H]1CN(c2nc3ccc(C(F)(F)F)cc3n2CC(=O)N2CCOCC2)CC[C@H]1F [Example 459]: range 2
N[C@@H]1CN(c2nc3cc(F)c(F)cc3n2CC(=O)N2CCCC2)CC[C@H]1F [Example 277]: range 3
CN(CC(F)(F)F)C(=O)Cn1c(N2CC[C@@H](F)[C@H](N)C2)nc2c(F)cc(F)cc21 [Example 558]: range 2
Cc1cc(Cn2c(N3CC[C@@H](F)[C@H](N)C3)nc3cc(F)c(F)cc32)no1 [Example 564]: range 2
Cc1nc(-c2ccccc2)sc1Cn1c(N2CC[C@@H](F)[C@H](N)C2)nc2ccc(F)cc21 [Example 585]: range 1
Cc1ccc(Cn2c(N3CCC[C@@H](N)C3)nc3ccccc32)cc1 [Example 386]: range 1
